- Test system: Aphis fabae
- Assay overview: Insecticidal activity against Aphis fabae (black bean aphid) infested soybean tender shoots at 0.625 mg/L measured 48 hr post compound dose by modified FAO dip method
- Assay type: functional
Below: a set of entries, each annotated with reported mortality at 0.625 µg/mL.
Observable: mortality at 0.625 µg/mL (%)

[[record]]
molecule = "CCC(C)[C@H]1O[C@]2(CC[C@@H]1C)C[C@@H]1C[C@@H](C/C=C(\\C)[C@@H](OC(=O)Nc3cccc(C)c3)[C@@H](C)/C=C/C=C3\\CO[C@@H]4[C@H](O)C(C)=C[C@@H](C(=O)O1)[C@]34O)O2 (stereo partly drawn)"
observable = "mortality at 0.625 µg/mL"
value = 86.1

[[record]]
molecule = "CCC(C)[C@H]1O[C@]2(CC[C@@H]1C)C[C@@H]1C[C@@H](C/C=C(\\C)[C@@H](O[C@H]3C[C@H](OC)[C@@H](OC(=O)C(C)(C)CC)[C@H](C)O3)[C@@H](C)/C=C/C=C3\\CO[C@@H]4[C@H](O)C(C)=C[C@@H](C(=O)O1)[C@]34O)O2 (stereo partly drawn)"
observable = "mortality at 0.625 µg/mL"
value = 89.1

[[record]]
molecule = "CCC(C)[C@H]1O[C@]2(CC[C@@H]1C)C[C@@H]1C[C@@H](C/C=C(\\C)[C@@H](O[C@H]3C[C@H](OC)[C@@H](OC(=O)c4ccc(F)cc4)[C@H](C)O3)[C@@H](C)/C=C/C=C3\\CO[C@@H]4[C@H](O)C(C)=C[C@@H](C(=O)O1)[C@]34O)O2 (stereo partly drawn)"
observable = "mortality at 0.625 µg/mL"
value = 97.1

